The reported measurements were obtained from patent US12528777B2.

Assay: Metabolic stability using Human Liver Microsomes
Assay type: in vitro ADME
Description: 1 mM stock solution of test compound was prepared in DMSO and diluted with Acetonitrile:Water (1:1) to get a 100 μM working concentration. 100 mL of Milli Q water was added to K2HPO4 (1.398 g) and KH2PO4 (0.27 g) to get final pH 7.4 solution of potassium phosphate buffer. […] The above mixture was pre incubated for 15 minutes at 37° C. […] 120 μL of supernatant was diluted with 120 μL of water and analyzed by LC-MS/MS [sample preparation].
Endpoint name: Clearance class from % QH

                                   compound            result
0  COCCn1c(-c2ccncc2)nc2ccc(NC(=O)Nc3cccc(C(C)=O)c3)cc2c1=O   lower clearance
1  COCCn1cnc2ccc(NC(=O)Nc3cccc(C(C)=O)c3)cc2c1=O   lower clearance
2  CC(=O)c1cccc(NC(=O)Nc2ccc3ncn(CC(=O)Nc4ccccc4F)c(=O)c3c2)c1   lower clearance
3  COCCn1c(-c2cccnc2)nc2ccc(NC(=O)Nc3cccc(C(C)=O)c3)cc2c1=O   lower clearance
4  COCCn1c(-c2ccccn2)nc2ccc(NC(=O)Nc3cccc(C(C)=O)c3)cc2c1=O  medium clearance
5  CC(=O)c1cccc(NC(=O)Nc2ccc3ncn(CCCN4CCOCC4)c(=O)c3c2)c1  medium clearance

Reported Clearance class from % QH ( COCCn1c(C(=O)N2CCCCC2)nc2ccc(NC(=O)Nc3cccc(C(C)=O)c3)cc2c1=O [Compound 330a] ) = lower clearance

###

I'd appreciate it if you could supply % QH (Well stirred model) values for the items below.
Assay: Metabolic stability using Human Liver Microsomes
Assay type: in vitro ADME
Conditions: NADPH, 0-60 min
Provide the reading as a plain figure in %.

compound COCCn1c(C(=O)N2CCCCC2)nc2ccc(NC(=O)Nc3cccc(C(C)=O)c3)cc2c1=O [Compound 330a] , % QH (Well stirred model) observed: 26.0

For record `COCCn1c(-c2ccccn2)nc2ccc(NC(=O)Nc3cccc(C(C)=O)c3)cc2c1=O` the listed % QH (Well stirred model) is 38.8

Short answer for `CC(=O)c1cccc(NC(=O)Nc2ccc3ncn(CC(=O)Nc4ccccc4F)c(=O)c3c2)c1` : % QH (Well stirred model) was 29.8

Kindly note the recorded % QH (Well stirred model) for `COCCn1c(CN2CCCCC2)nc2ccc(NC(=O)Nc3cccc(C(C)=O)c3)cc2c1=O` , which is 83.5

Entry `COCCn1c(-c2ccncc2)nc2ccc(NC(=O)Nc3cccc(C(C)=O)c3)cc2c1=O` ; % QH (Well stirred model) = 24.5

Lookup result for `CC(=O)c1cccc(NC(=O)Nc2ccc3ncn(CCCN4CCOCC4)c(=O)c3c2)c1` ; measured % QH (Well stirred model): 35.3

Recorded % QH (Well stirred model) (compound `COCCn1cnc2ccc(NC(=O)Nc3cccc(C(C)=O)c3)cc2c1=O` ): 21.26

So for `COCCn1c(-c2cccnc2)nc2ccc(NC(=O)Nc3cccc(C(C)=O)c3)cc2c1=O` , the logged % QH (Well stirred model) turned out to be 15.5

###

Test: Plasma stability assay
Assay type: in vitro ADME, human
Conditions: human plasma, after 2 hours, with respect to Propantheline
Endpoint name: Plasma stability

Example entries and their recorded answers appear below.
>>> print(df.to_string())
                                   compound     endpoint_name                  result
0  COCCn1c(-c2ccccn2)nc2ccc(NC(=O)Nc3cccc(C(C)=O)c3)cc2c1=O  Plasma stability   good plasma stability
1  CC(=O)c1cccc(NC(=O)Nc2ccc3ncn(CC(=O)Nc4ccccc4F)c(=O)c3c2)c1  Plasma stability   good plasma stability
2  COCC(C)n1cnc2ccc(NC(=O)Nc3cccc(C(C)=O)c3)cc2c1=O (centres unmarked)  Plasma stability  lower plasma stability
3  COCCn1c(C2CCCCC2)nc2ccc(NC(=O)Nc3cccc(C(C)=O)c3)cc2c1=O  Plasma stability   good plasma stability
4  COCCn1c(-c2ccncc2)nc2ccc(NC(=O)Nc3cccc(C(C)=O)c3)cc2c1=O  Plasma stability   good plasma stability

Form: compound = COCCn1c(C(=O)N2CCCCC2)nc2ccc(NC(=O)Nc3cccc(C(C)=O)c3)cc2c1=O [Compound 330a] ; Plasma stability = good plasma stability

Quick note, Plasma stability for `COCCn1cnc2ccc(NC(=O)Nc3cccc(C(C)=O)c3)cc2c1=O` landed at lower plasma stability

Measured Plasma stability of `CC(=O)c1cccc(NC(=O)Nc2ccc3ncn(CCCN4CCOCC4)c(=O)c3c2)c1` : good plasma stability

###

Assay: Lipophilicity assay (octanol/buffer)
Type: physicochemical
Settings: pH 7.4
Endpoint name: Lipophilicity class from Log D

Reference set, count: 9
In [3]: df
Out[3]:
                                   molecule               result
0  COCCn1c(C(=O)N2CCCCC2)nc2ccc(NC(=O)Nc3cccc(C(C)=O)c3)cc2c1=O [Compound 330a]  ideal lipophilicity
1  COCCn1c(-c2ccncc2)nc2ccc(NC(=O)Nc3cccc(C(C)=O)c3)cc2c1=O          hydrophilic
2  COCCn1c(C2CCCCC2)nc2ccc(NC(=O)Nc3cccc(C(C)=O)c3)cc2c1=O          hydrophilic
3  COCC(C)n1cnc2ccc(NC(=O)Nc3cccc(C(C)=O)c3)cc2c1=O (stereo not shown)  ideal lipophilicity
4  CC(=O)c1cccc(NC(=O)Nc2ccc3ncn(CCCN4CCOCC4)c(=O)c3c2)c1          hydrophilic
5  CC(=O)c1cccc(NC(=O)Nc2ccc3ncn(CC(=O)Nc4ccccc4F)c(=O)c3c2)c1  ideal lipophilicity
6  COCCn1cnc2ccc(NC(=O)Nc3cccc(C(C)=O)c3)c(Br)c2c1=O  ideal lipophilicity
7  COCCn1c(CN2CCCCC2)nc2ccc(NC(=O)Nc3cccc(C(C)=O)c3)cc2c1=O  ideal lipophilicity
8  COCCn1c(-c2cccnc2)nc2ccc(NC(=O)Nc3cccc(C(C)=O)c3)cc2c1=O          hydrophilic

Turning now to a further molecule:
// field: Lipophilicity class from Log D; key: `COCCn1c(-c2ccccn2)nc2ccc(NC(=O)Nc3cccc(C(C)=O)c3)cc2c1=O` ; value = ideal lipophilicity

###

System: ATGL
Experiment: Western blot of ATGL level in HepG2 cells
Format: cell-based
Settings: western blot, 24 hours, 10 μM screening or 50 nM-5 μM dose dependent
Endpoint name: ATGL level in HepG2 cells

In [3]: df
Out[3]:
                                   compound              endpoint_name                result
0  COCCn1cnc2ccc(NC(=O)Nc3cccc(C(C)=O)c3)cc2c1=O [Compound 9]  ATGL level in HepG2 cells  increased ATGL level
1  COCCn1c(-c2ccccn2)nc2ccc(NC(=O)Nc3cccc(C(C)=O)c3)cc2c1=O [Compound 211]  ATGL level in HepG2 cells  increased ATGL level
2  COCCn1cnc2ccc(NC(=O)Nc3cccc(N(Cc4ccccc4)C(C)=O)c3)cc2c1=O [Compound 24]  ATGL level in HepG2 cells  increased ATGL level
